Measured values drawn from ChEMBL document CHEMBL1201862 for this set.

Property: IC50; scope: individual compounds
Target: Nuclear receptor subfamily 0 group B member 1 (Homo sapiens);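 also: HEK293T cells transfected with SF-1 and DAX-1 plus StAR promoter luciferase reporter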
Sequence (P51843 whole entry): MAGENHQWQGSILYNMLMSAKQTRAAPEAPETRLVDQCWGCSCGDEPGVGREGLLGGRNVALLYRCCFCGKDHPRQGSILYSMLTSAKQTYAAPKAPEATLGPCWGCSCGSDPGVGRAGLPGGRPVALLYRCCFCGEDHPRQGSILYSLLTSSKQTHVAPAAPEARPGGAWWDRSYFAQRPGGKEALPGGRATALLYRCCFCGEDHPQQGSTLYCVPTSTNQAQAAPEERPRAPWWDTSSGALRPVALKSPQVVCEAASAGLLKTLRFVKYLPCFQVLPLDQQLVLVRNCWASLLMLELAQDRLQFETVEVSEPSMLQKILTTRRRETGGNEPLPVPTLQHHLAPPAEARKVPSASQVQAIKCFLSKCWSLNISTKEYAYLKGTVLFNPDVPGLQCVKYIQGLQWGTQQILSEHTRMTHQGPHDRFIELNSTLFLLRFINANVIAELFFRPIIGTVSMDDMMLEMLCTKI
Format: functional, cell-based
Structures can show the parent of a compound that is named as a salt. The source made the active and inactive calls.

O=c1[nH]cnc2nc(-c3ccc(N(CCCl)CCCl)cc3)[nH]c12
> 67.6 µM (inactive)
CNCC(O)c1ccc(O)c(O)c1 (centres undefined) [RACEPINEPHRINE HYDROCHLORIDE]
> 67.6 µM (inactive)
O=C(Nc1ccc(N2CCCC2)cc1)c1cccc(F)c1
> 67.5 µM (inactive)

Kindly note: Nuclear receptor subfamily 0 group B member 1 (Homo sapiens), CCCC(=O)N1CCCC(c2cc(C(=O)Nc3ccc4c(c3)OCO4)no2)C1 (centres undefined) , IC50 value reported: > 67.6 µM (inactive)

###

Molecular target: Cytochrome P450 2C9 (Homo sapiens, UniProt P11712)
Sequence (P11712 whole entry): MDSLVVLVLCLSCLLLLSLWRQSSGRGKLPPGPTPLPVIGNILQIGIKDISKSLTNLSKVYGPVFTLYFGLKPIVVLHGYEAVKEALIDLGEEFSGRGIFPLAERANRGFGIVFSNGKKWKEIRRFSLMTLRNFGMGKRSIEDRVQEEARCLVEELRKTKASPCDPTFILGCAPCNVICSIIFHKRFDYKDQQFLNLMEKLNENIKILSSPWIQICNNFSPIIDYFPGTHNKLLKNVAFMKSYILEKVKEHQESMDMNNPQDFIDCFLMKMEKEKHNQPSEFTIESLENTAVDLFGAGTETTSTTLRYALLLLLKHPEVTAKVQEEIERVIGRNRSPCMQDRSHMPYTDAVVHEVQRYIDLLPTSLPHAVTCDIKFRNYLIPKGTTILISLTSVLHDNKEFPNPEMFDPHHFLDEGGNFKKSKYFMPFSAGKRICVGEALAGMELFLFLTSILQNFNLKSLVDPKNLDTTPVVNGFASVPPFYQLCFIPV
Property: AC50; scope: individual compounds

Some solved cases for reference:
CC(=O)Nc1ccc(NC(=O)CSc2ncnn2-c2ccccc2)cc1
12.6 µM (inconclusive)
CCn1c(S)nnc1CCNC(=O)c1ccccc1Cl
1.58 µM (inconclusive)

Shift focus to the following entry.
Lab book: AC50 of "Cc1cccc(NC(=O)c2cc(=O)c3ccccc3o2)n1" noted as 3.16 µM (inconclusive)

###

Property: EC50; scope: individual compounds
Test: cells
Format: functional, cell-based
The source made the active and inactive calls.

Some solved cases for reference:
CCCC(=O)NC(c1ccccc1OC)c1ccc2cccnc2c1O (stereo not given)
7.86 µM (active)
O=C(COC(=O)c1ccccc1Nc1ccccc1)NCc1ccccc1Cl
> 350 µM (not active)

Lab book: EC50 of "C/C(=N\Nc1nc2ccccc2[nH]1)c1ccccn1" noted as 6.03 µM (active)

Lab book: EC50 of "COc1ccc(OC)c(NC2=NCCCS2)c1" noted as > 350 µM (not active)

Lab book: EC50 of O=C(NC(c1ccccc1)c1ccccc1)C1CCCO1 (stereo not given) noted as > 350 µM (not active)

###

Target: Corticotropin-releasing factor receptor 2/Corticotropin-releasing factor-binding protein (Homo sapiens, UniProt P24387+Q13324)
Sequence (Q13324 whole entry): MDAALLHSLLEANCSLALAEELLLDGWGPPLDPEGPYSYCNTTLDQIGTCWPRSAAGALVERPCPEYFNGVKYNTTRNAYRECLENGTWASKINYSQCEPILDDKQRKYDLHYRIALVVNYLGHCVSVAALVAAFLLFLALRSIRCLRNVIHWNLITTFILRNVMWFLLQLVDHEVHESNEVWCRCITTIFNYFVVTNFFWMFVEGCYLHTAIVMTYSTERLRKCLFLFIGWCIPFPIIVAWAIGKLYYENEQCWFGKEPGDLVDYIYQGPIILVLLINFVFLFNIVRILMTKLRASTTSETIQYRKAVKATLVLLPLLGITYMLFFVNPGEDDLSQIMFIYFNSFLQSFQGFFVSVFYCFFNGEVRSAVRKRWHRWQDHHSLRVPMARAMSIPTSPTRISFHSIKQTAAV
Sequence (P24387 whole entry): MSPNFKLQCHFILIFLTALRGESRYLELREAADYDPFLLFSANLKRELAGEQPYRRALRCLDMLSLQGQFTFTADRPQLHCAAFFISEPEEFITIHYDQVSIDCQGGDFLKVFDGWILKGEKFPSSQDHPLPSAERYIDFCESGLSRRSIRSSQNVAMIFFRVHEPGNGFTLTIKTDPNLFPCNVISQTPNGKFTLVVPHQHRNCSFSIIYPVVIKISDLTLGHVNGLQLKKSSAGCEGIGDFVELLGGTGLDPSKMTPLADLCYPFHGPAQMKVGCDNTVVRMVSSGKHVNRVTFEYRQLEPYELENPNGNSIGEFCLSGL
Test: activators of CRF receptor 2 with binding protein – uHTS hits, confirmation (AID 602473)
Format: functional
Conditions: read-out: EC50_Mean
Active and inactive are the calls of the source.
readout.name: EC50

Some solved cases for reference:
COCCOC(=O)/C(=C/c1ccc(OC(=O)c2ccccc2)cc1)C(C)=O
> 53 µM (inactive)
COc1ccc2c(c1)c(C(=O)O)c(C)n2-c1ccc(Cl)cc1
> 53 µM (inactive)
COc1ccc(NS(=O)(=O)c2ccc(N3CCOCC3)c(NC(=O)C(C)C)c2)cc1
> 53 µM (inactive)
CCn1c(S)nnc1CCNC(=O)c1ccccc1Cl
> 53 µM (inactive)
Cc1sc2nc(CN(Cc3cccs3)C(=O)NC3CCCCC3)[nH]c(=O)c2c1C
> 53 µM (inactive)

Lab book: EC50 of "COc1ccc(CCNC(=O)c2cccc3c2C(=O)N(C2CCCCC2)C3)cc1OC" noted as > 53 µM (inactive)

Lab book: EC50 of "Cc1cc(=O)oc2c1ccc1oc(/C(=N/O)c3ccccc3)c(C)c12" noted as > 53 µM (inactive)

Lab book: EC50 of "Cc1ccccc1N=C1N=C(S)N(c2ccccc2)C12CCCCC2" noted as > 53 µM (inactive)

Lab book: EC50 of "COc1ccc(CCN=C(N)S)cc1OC" noted as > 53 µM (inactive)

Lab book: EC50 of CC(=O)NC1=NN(C(C)=O)C(C)(c2ccccn2)S1 (stereo unspecified) noted as > 53 µM (inactive)

Lab book: EC50 of "Cc1noc(NS(=O)(=O)c2ccc(NC(=O)CS(=O)(=O)c3ccccc3)cc2)c1C" noted as > 53 µM (inactive)

###

Biological target: Mannose-6-phosphate isomerase (Homo sapiens, UniProt P34949)
Sequence (P34949 whole entry): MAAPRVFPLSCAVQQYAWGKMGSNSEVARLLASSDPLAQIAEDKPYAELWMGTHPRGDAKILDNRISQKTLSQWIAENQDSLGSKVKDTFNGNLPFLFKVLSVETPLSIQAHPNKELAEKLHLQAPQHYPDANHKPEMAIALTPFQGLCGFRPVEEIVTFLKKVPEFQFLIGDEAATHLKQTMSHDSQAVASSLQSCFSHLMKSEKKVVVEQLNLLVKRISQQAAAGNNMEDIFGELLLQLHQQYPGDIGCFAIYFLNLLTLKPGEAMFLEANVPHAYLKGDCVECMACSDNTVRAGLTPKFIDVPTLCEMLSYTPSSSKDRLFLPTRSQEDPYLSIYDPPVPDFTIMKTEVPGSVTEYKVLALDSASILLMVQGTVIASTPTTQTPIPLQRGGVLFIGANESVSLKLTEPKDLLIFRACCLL
Assay: MPI enzyme activity inhibition – biochemical, fluorescence intensity, coupled assay, primary screen (AID 1209)
Calls of active or inactive are those of the source.
Property: IC50; scope: individual compounds

Some solved cases for reference:
Nc1ccc2c(c1)C(=O)C(=O)c1ccccc1-2
> 50 µM (not active)
CN(C)C(S)=Nc1nc2ccccc2s1
3.79 µM (active)
CCSc1nnc(S)s1
49.7 µM (active)
CC(C)(C)N1C(=O)Cc2c1nc(N)c1c(N)nc(N3CCCCC3CO)c(C#N)c21 (stereo not given)
> 50 µM (not active)

Shift focus to the following entry.
Lab book: IC50 of CCc1ccccc1NC1Nc2cc(C)nn2S1 (stereo not given) noted as 10.9 µM (active)

###

Property: EC50; scope: individual compounds
Target: 5-hydroxytryptamine receptor 2A (Mus musculus);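 also: CHO-K1 cells with tagged receptor and beta-arrestin; agonist potency measured as compound-induced activation of the receptor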
Sequence (P35363 whole entry): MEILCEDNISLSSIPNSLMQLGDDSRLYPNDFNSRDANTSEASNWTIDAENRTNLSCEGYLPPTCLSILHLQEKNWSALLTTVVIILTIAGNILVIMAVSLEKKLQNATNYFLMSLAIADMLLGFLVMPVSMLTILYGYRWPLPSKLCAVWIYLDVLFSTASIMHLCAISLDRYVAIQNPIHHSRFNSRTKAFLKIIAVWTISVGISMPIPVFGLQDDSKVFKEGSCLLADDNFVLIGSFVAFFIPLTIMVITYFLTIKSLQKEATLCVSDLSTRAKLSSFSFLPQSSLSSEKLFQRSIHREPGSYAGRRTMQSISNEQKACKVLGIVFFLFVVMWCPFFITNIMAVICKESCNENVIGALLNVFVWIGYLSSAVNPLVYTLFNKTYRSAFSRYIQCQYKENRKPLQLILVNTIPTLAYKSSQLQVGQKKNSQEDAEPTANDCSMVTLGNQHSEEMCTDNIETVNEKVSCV
Type: functional, cell-based
Structures can show the parent of a compound that is named as a salt. The source made the active and inactive calls.

Some solved cases for reference:
c1ccc(N2CCN(Cc3ccc4c(c3)OCO4)CC2)nc1
0.0228 µM (active)
CNCC(O)c1ccc(O)c(O)c1 (centres undefined) [RACEPINEPHRINE HYDROCHLORIDE]
1.39 µM (active)
CCCN1CCC[C@H](c2cccc(O)c2)C1
0.711 µM (active)

Shift focus to the following entry.
Lab book: EC50 of "COc1cccc(N2CCN(Cc3nc(N)nc(N4CCCc5ccccc54)n3)CC2)c1" noted as 76.1 µM (inactive)

###

Property: AC50; scope: individual compounds
Molecular target: Adenosylmethionine-8-amino-7-oxononanoate aminotransferase (Mycobacterium tuberculosis)
Sequence (P9WQ81 whole entry): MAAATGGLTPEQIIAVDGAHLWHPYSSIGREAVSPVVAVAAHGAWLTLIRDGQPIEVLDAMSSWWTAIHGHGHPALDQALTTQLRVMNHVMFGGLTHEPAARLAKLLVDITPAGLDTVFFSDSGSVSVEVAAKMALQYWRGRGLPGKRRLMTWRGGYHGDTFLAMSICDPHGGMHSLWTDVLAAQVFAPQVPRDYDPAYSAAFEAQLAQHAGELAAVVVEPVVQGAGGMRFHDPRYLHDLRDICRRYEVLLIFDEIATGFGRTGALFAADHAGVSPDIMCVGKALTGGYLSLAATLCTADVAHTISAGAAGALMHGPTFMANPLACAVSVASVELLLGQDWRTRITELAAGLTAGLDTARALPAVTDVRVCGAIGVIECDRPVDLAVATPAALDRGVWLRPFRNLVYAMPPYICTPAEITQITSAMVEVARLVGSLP
Assay: Mycobacterium tuberculosis BioA enzyme inhibitor Measured in Biochemical System Using Plate Reader - 2163-02_Inhibitor_Dose_CherryPick_Activity.
Format: functional, Mycobacterium tuberculosis UT205
Active and inactive are the calls of the source.

Some solved cases for reference:
C=CCn1c(SCc2c(C(=O)OC)sc(N)c2C(=O)OC)nnc1-c1ccc(Cl)cc1
244 nM (active)
COCC(=O)N1CC[C@@H]2[C@@H](CO)N(C)c3ccc(-c4ccc(F)cc4)cc3[C@@H]21
948 nM (active)
Cc1cnc(C(=O)NC2CC(C)(C)Cc3c2cnn3-c2cccc(F)c2)cn1 (stereo not given)
1630 nM (active)

Lab book: AC50 of "O=C(c1cccc(F)c1)N1CC[C@@H]2[C@@H](CO)Nc3ccc(-c4cccc(F)c4)cc3[C@@H]21" noted as 222 nM (active)

Lab book: AC50 of "O=C(Nc1cccnc1)C1CCN(S(=O)(=O)c2ccc(Cl)cc2)CC1" noted as 711 nM (active)

###

Assay: Trypanosoma cruzi growth suppression in host cells – NIH3T3 host cells, beta-gal luminescence, confirmation (AID 2044);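 also: intracellular parasites grown in NIH/3T3 mouse fibroblasts as host cells; luminescent beta-galactosidase reporter signal from transgenic T. cruzi replicating inside host cells; inhibitors lower the luminescence signal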
Type: functional, cell-based
Calls of active or inactive are those of the source.
Property: EC50; scope: individual molecules

Some solved cases for reference:
CCn1c(=O)n(CC)c2cc(N3CCCC3)c(NC(=O)c3cc(Br)ccc3OC)cc21
0.99 µM (active)
COC(=O)[C@@H]1[C@@H](C(=O)OC)C2(c3ccccc3-c3ccccc32)N(c2ccc(Cl)cc2)N1C#N
2.24 µM (active)
Oc1ccc(-c2cc(-c3ccc(O)cc3)nc(-c3ccccc3)n2)cc1
3.86 µM (active)
Fc1cccc(C[n+]2csc3ccccc32)c1
1.99 µM (active)
Cc1cc(N2CCN(c3ccccc3)CC2)nc(NCc2ccccc2)n1
0.809 µM (active)
CN(C)C(S)=Nc1nc2ccccc2s1
2.48 µM (active)
Nc1nc(-c2ccccn2)nc(N)c1Cc1ccccc1F
2.52 µM (active)
CCOC(=O)c1sc2nc(CC(=O)OC)nc(N3CCN(c4ccc(OC)cc4)CC3)c2c1C
1.91 µM (active)

Lab book: EC50 of "CCN1CCN(c2ccc(S(=O)(=O)N3CCCCC3)cc2NC(=O)c2ccc(C)o2)CC1" noted as 2.01 µM (active)

Lab book: EC50 of "O=S(=O)(c1ccc2ccccc2c1)N1CCC(c2nc(-c3ccncc3)no2)CC1" noted as 0.564 µM (active)

###

Property: IC50; scope: individual compounds
Target: UniProt:Q9Y4P1
Sequence (Q9Y4P1 whole entry): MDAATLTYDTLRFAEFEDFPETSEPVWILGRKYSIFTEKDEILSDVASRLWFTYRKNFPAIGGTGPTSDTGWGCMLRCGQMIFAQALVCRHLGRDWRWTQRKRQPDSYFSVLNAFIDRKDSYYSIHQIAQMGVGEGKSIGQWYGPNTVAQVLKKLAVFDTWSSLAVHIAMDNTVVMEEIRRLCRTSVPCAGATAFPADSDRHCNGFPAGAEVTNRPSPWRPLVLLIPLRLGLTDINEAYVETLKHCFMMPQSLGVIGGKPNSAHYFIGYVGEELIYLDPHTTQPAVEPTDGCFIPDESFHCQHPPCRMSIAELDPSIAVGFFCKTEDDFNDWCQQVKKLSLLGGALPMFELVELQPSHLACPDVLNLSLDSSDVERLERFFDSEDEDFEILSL
Type: functional
The source made the active and inactive calls.

Some solved cases for reference:
Nc1ccc2c(c1)C(=O)C(=O)c1ccccc1-2
1.56 µM (active)
O=C(O)c1ccc(NC2=C/C(=N/S(=O)(=O)c3ccccc3)c3ccccc3C2=O)cc1
10.1 µM (active)
CCc1nnc(NS(=O)(=O)c2ccc(N/C=C\C(=O)c3ccc4ccccc4c3)cc2)s1
11.1 µM (active)
Cc1cc(C=C2C(=O)c3ccccc3C2=O)c(C)n1-c1ccccc1
11 µM (active)

Shift focus to the following entry.
Lab book: IC50 of "COc1ccc(Br)cc1CNC(=O)C1CCN(S(=O)(=O)N2CCC(C)CC2)CC1" noted as 9.71 µM (active)

###

Biological target: UniProt:P05177
Sequence (P05177 whole entry): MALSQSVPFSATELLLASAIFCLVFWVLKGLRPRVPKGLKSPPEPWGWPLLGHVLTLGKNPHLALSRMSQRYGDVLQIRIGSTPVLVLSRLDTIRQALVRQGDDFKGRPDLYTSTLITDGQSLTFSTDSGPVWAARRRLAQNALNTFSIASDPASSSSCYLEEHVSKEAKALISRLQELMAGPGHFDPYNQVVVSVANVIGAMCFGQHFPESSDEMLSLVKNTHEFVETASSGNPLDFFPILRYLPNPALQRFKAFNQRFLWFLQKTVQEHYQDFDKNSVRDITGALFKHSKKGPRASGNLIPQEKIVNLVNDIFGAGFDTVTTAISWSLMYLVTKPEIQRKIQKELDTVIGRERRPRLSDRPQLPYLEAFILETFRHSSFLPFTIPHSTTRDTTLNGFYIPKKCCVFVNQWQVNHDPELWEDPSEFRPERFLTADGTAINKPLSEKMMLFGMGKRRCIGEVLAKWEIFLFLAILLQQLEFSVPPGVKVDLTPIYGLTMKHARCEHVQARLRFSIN
Property: AC50; scope: individual compounds

Some solved cases for reference:
COc1ccc(Oc2ncc3nc(C)c(=O)n(CCC#N)c3n2)cc1
25.1 µM (inconclusive)
O=C(CNC(=O)c1cccs1)NCC(=O)OCc1ccc(Cl)cc1Cl
10 µM (inconclusive)

Kindly note: UniProt:P05177, "CN(C)CN1C(=O)S/C(=C2/C(=O)N(CN(C)C)c3ccccc32)C1=O" , AC50 value reported: 0.794 µM (inconclusive)

Kindly note: UniProt:P05177, "NC(=S)SCCC(=O)O" , AC50 value reported: 1.58 µM (inconclusive)

Kindly note: UniProt:P05177, "COC(=O)[C@@]1(Cc2ccc(F)cc2)[C@H]2c3cc(C(=O)N4CCCC4)n(CCF)c3C[C@H]2CN1C(=O)c1ccccc1" , AC50 value reported: 15.8 µM (inconclusive)
